Where do these numbers come from? They come from patent US7365069B2.

Collected melting point values appear next to each entry.

# input I would be grateful if you could share the reported melting point for CNc1nc(-c2ccc(F)cc2)n(-c2ccc(SC)cc2)c(=O)c1C#N .
# output 219 to 222 °C

# input For CSc1ccc(-c2nc(SC)c(C#N)c(=O)n2-c2ccc(C(C)(C)C)cc2)cc1 then?
# output 233 to 236 °C

# input For Cc1ccc(-n2c(-c3ccc(S(C)(=O)=O)cc3)nc(O)c(C#N)c2=O)cc1C then?
# output > 285 °C

# input For CSc1nc(-c2ccccc2)n(-c2ccc(F)cc2)c(=O)c1C#N then?
# output 204 to 205 °C

# input For CSc1ccc(-n2c(-c3cccnc3)nc(SC)c(C#N)c2=O)cc1 then?
# output 212 to 215 °C

# input For CSc1ccc(-c2nc(SC)c(C#N)c(=O)n2-c2ccc(C)cc2C)cc1 then?
# output 203 to 205 °C

# input For CCc1ccc(-n2c(-c3ccccn3)nc(SC)c(C#N)c2=O)cc1 then?
# output 172 to 175 °C

# input For CCOc1ccc(-n2c(-c3ccc(SC)cc3)nc(SC)c(C#N)c2=O)cc1 then?
# output 209 to 213 °C

# input For CNc1nc(-c2ccc(SC)cc2)n(-c2ccc(C)cc2)c(=O)c1C#N then?
# output 268 to 271 °C

# input For CSc1ccc(-c2nc(SC)c(C#N)c(=O)n2-c2ccc(Cl)cc2)cc1 then?
# output 203 to 205 °C

# input For CNc1nc(-c2ccc(SC)cc2)n(-c2ccc(C)c(C)c2)c(=O)c1C#N then?
# output 199 to 205 °C

# input For CCc1ccc(-n2c(-c3ccc(SC)cc3)nc(SC)c(C#N)c2=O)cc1 then?
# output 223 to 225 °C

# input For CSc1ccc(-c2nc(SC)c(C(=O)O)c(=O)n2-c2ccc(C)cc2)cc1 then?
# output 173 to 175 °C

# input For CSc1nc(-c2ccncc2)n(-c2ccc(C)cc2)c(=O)c1C#N then?
# output > 250 °C

# input For CSc1nc(-c2ccc(S(C)(=O)=O)cc2)n(-c2ccc(C)c(C)c2)c(=O)c1C#N then?
# output 245 to 247 °C

# input For COc1ccc(-n2c(-c3ccc(SC)cc3)nc(SC)c(C#N)c2=O)cc1 then?
# output 214 to 216 °C

# input For CSc1nc(-c2ccc(S(C)(=O)=O)cc2)n(-c2ccc(C)cc2)c(=O)c1C#N then?
# output 242 to 244 °C

# input For CSc1nc(-c2ccccn2)n(-c2ccc(C)c(C)c2)c(=O)c1C#N then?
# output 218 to 223 °C

# input For Cc1ccc(-n2c(-c3ccc(S(C)(=O)=O)cc3)nc(S(C)(=O)=O)c(C(N)=O)c2=O)cc1C then?
# output 245 to 248 °C

# input For COc1cc(-n2c(-c3ccc(SC)cc3)nc(SC)c(C#N)c2=O)cc(OC)c1OC then?
# output 192 to 195 °C

# input For Cc1ccc(-n2c(-c3ccc(S(C)(=O)=O)cc3)nc(N3CCNCC3)c(C(N)=O)c2=O)cc1 then?
# output 269 to 275 °C

# input For CCc1ccc(-n2c(-c3cccnc3)nc(SC)c(C#N)c2=O)cc1 then?
# output 207 to 209 °C

# input For CS(=O)(=O)c1ccc(-n2c(-c3ccc(F)cc3)nc(O)c(C#N)c2=O)cc1 then?
# output > 285 °C

---

Collected melting point values appear next to each entry.

Recorded melting point, per entry:
# input I would be grateful if you could share the reported melting point for CSc1ccc(-n2c(-c3ccccc3)nc(SC)c(C#N)c2=O)cc1 .
# output 204 to 205 °C

# input For CSc1nc(-c2cccnc2)n(-c2ccc(F)cc2)c(=O)c1C#N then?
# output 190 to 193 °C

# input For CCOC(=O)c1c(SC)nc(-c2ccc(F)cc2)n(-c2ccc(SC)cc2)c1=O then?
# output 166 to 169 °C

# input For CSc1ccc(-c2nc(SC)c(C#N)c(=O)n2-c2ccc(C)c(C)c2)cc1 then?
# output 234 to 236 °C

For the next question, use this compound.
# input I would be grateful if you could share the reported melting point for CSc1ccc(-n2c(-c3ccccn3)nc(SC)c(C#N)c2=O)cc1 .
# output 158 to 161 °C

---

Collected melting point values appear next to each entry.

Recorded melting point, per entry:
# input I would be grateful if you could share the reported melting point for CSc1ccc(-n2c(-c3ccc(C(F)(F)F)cc3)nc(SC)c(C#N)c2=O)cc1 .
# output 228 to 229 °C

# input For Cc1ccc(-n2c(-c3ccc(S(C)(=O)=O)cc3)nc(N3CCOCC3)c(C(N)=O)c2=O)cc1 then?
# output 226 to 228 °C

# input For COc1ccc(-n2c(-c3cccnc3)nc(SC)c(C#N)c2=O)cc1 then?
# output 230 to 233 °C

# input For CSc1ccc(-c2nc(SC)c(C#N)c(=O)n2-c2ccc(C)cc2)cc1 then?
# output 196 to 198 °C

# input For COc1ccc(-n2c(-c3ccccn3)nc(SC)c(C#N)c2=O)cc1 then?
# output 246 to 253 °C

***
# input I would be grateful if you could share the reported melting point for CNc1nc(-c2ccc(F)cc2)n(-c2ccc(S(C)(=O)=O)cc2)c(=O)c1C(N)=O .
# output > 300 °C

# input For CSc1nc(-c2cccnc2)n(-c2ccc(C)c(C)c2)c(=O)c1C#N then?
# output > 250 °C

# input For CSc1nc(-c2ccncc2)n(-c2ccc(C(C)C)cc2)c(=O)c1C#N then?
# output 173 to 175 °C

# input For CSc1ccc(-n2c(-c3ccc(F)cc3)nc(SC)c(C#N)c2=O)cc1 then?
# output 204 to 207 °C

---

- Test system: TNF-α
- Protocol: TNF-α production in LPS-stimulated human whole blood
- Assay type: cell-based
- Applied conditions: 0.1 μM, LPS 4 h
Classification field: satisfied = inhibition at 0.1 µM at or over 50%; not satisfied = inhibition at 0.1 µM under 50%.

Before answering, review these 3 worked examples.
# input Entry CSc1ccc(-c2nc(SC)c(C#N)c(=O)n2-c2ccc(Br)cc2)cc1 : is its inhibition at 0.1 µM no less than 50%?
# output not satisfied

# input For CSc1ccc(-n2c(-c3ccc(Cl)cc3)nc(SC)c(C#N)c2=O)cc1 then?
# output satisfied

# input For COc1ccc(-n2c(-c3ccccn3)nc(SC)c(C#N)c2=O)cc1 then?
# output not satisfied

Moving on to the next molecule.
# input Entry CSc1nc(-c2ccccn2)n(-c2ccc(C)c(C)c2)c(=O)c1C#N : is its inhibition at 0.1 µM no less than 50%?
# output not satisfied

---

- Test system: MCF-7
- Protocol: DTP human tumor cell line one-dose prescreen, MCF-7
- Format: cell-based
- Applied conditions: MCF7, 48 hours, Alamar Blue, test/control, read-out: Percentage growth Breast MCF-7
// bucketize activity at 100 µM: class 0 = under 70%, class 1 = from 70% up to 80%, class 2 = 80% and over

# input Kindly identify the class of CSc1ccc(-n2c(-c3cccnc3)nc(SC)c(C#N)c2=O)cc1 [Example 27] .
# output class 0

# input For CSc1ccc(-c2nc(SC)c(C(=O)O)c(=O)n2-c2ccc(C)cc2)cc1 [Example 8] then?
# output class 1

---

- System: MCF-7
- Protocol: DTP human tumor cell line one-dose prescreen, MCF-7
- Assay type: cell-based
- Applied conditions: MCF7, 48 hours, Alamar Blue, test/control, read-out: Percentage growth Breast MCF-7
- Procedure: DTP Human Tumor Cell Line Screen Methodology of the In Vitro Cancer Screen The current assay utilizes a 384 well plate format and fluorescent staining technologies resulting in greater screening capacity for testing of synthetic samples. […] Percent growth is calculated on a plate-by-plate basis for test wells relative to control wells. Percent Growth is expressed as the ratio of fluorescence of the test well to the average fluorescence of the control wells x 100.
Measured endpoint: activity at 100 µM (%)
Supply the numeric figure in %, leaving out any unit text.

# input I would be grateful if you could share the reported activity at 100 µM for CCOc1ccc(-n2c(-c3ccc(SC)cc3)nc(SC)c(C#N)c2=O)cc1 .
# output 84

# input For CSc1ccc(-n2c(-c3ccncc3)nc(SC)c(C#N)c2=O)cc1 then?
# output 48

For the next question, use this compound.
# input I would be grateful if you could share the reported activity at 100 µM for CSc1ccc(-n2c(-c3ccccc3)nc(SC)c(C#N)c2=O)cc1 .
# output 82

---

Collected melting point values appear next to each entry.

# input I would be grateful if you could share the reported melting point for CSc1ccc(-n2c(-c3ccc(Cl)cc3)nc(SC)c(C#N)c2=O)cc1 .
# output 206 to 207 °C

# input For Cc1ccc(-n2c(-c3ccc(S(C)(=O)=O)cc3)nc(S(C)(=O)=O)c(C(N)=O)c2=O)cc1 then?
# output 260 to 262 °C

***
# input I would be grateful if you could share the reported melting point for CCOC(=O)c1c(SC)nc(-c2ccc(SC)cc2)n(-c2ccc(C)cc2)c1=O .
# output 153 to 155 °C

# input For CCOC(=O)c1c(SC)nc(-c2ccc(SC)cc2)n(-c2ccc(F)cc2)c1=O then?
# output 151 to 155 °C

# input For CCCCc1ccc(-n2c(-c3ccc(SC)cc3)nc(SC)c(C#N)c2=O)cc1 then?
# output 138 to 141 °C

# input For CSc1ccc(-c2nc(SC)c(C#N)c(=O)n2-c2ccc(F)cc2)cc1 then?
# output 219 to 221 °C

# input For CSc1ccc(-n2c(-c3ccc(C)cc3)nc(SC)c(C#N)c2=O)cc1 then?
# output 230 to 233 °C

# input For CSc1ccc(-c2nc(SC)c(C#N)c(=O)n2-c2ccc(C(C)C)cc2)cc1 then?
# output 180 to 181 °C
